- PROTOCOL_NOTES: NCI Yeast Anticancer Drug Screen. Data for the mlh1 rad18 strain (AID 175)
- ASSAY_CONDITIONS: S. cerevisiae mlh1 rad18 strain growth inhibition; at 50.0 µM; active compounds read high
The panel holds about 79,000 compounds, 15% with a hit somewhere; the sample as a whole holds those more often.
// growth inhibition lookup, one value per entry
Reply with just the number (in %).

COMPOUND	MEASURED_PARAMETER	READING_UNIT	ENDPOINT_VALUE
COc1cc(C(=O)[O][Hg][CH2]C2CC(O)CC([CH2][Hg][O]C(=O)c3cc(OC)c(OC)c(OC)c3)O2)cc(OC)c1OC (configuration not stated)	growth inhibition	%	98.7
CN(C)NP(c1ccccc1)c1ccccc1	growth inhibition	%	1.1
CC1=C(O)C(=O)C=C2C1=CC=C1[C@@]2(C)CC[C@@]2(C)[C@@H]3C[C@](C)(C(=O)O)CC[C@]3(C)CC[C@]12C	growth inhibition	%	84
O=C1C=Cc2ccccc2C1=O	growth inhibition	%	94.9

Lookup: # input compound: Cn1c(=O)c2ncnnc2n(C)c1=O ; wanted: its growth inhibition
Found: 45.1

Lookup: # input compound: O=C1NC(=O)C2(O)NC(=O)NC2(O)N1 (configuration not stated) ; wanted: its growth inhibition
Found: 18.1

Lookup: # input compound: CC(C)=CC(=O)N(C)C1C2CN3CCC(O2)C13 (configuration not stated) ; wanted: its growth inhibition
Found: 21.6

Lookup: # input compound: CC(C)CCCC(C)[C@H]1CCC2[C@@H]3CCC4Cc5nc6c(nc5C[C@]4(C)C3CC[C@@]21C)CC1CC[C@@H]2C(CC[C@@]3(C)C2CC[C@@H]3O)[C@@]1(C)C6 (some centres not stated) ; wanted: its growth inhibition
Found: 7.95

Lookup: # input compound: O=[N+]([O-])c1ccccc1-c1ccccc1 ; wanted: its growth inhibition
Found: 2.25

----------
- PROTOCOL_NOTES: NCI Yeast Anticancer Drug Screen. Data for the sgs1 mgt1 strain (AID 161);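 also: 0% = growth of cultures given vehicle only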
- ASSAY_CONDITIONS: S. cerevisiae sgs1 mgt1 strain, at 50.0 µM
The panel holds about 79,000 compounds, 15% with a hit somewhere; the sample as a whole holds those more often. Activity calls are given as the source filed them. Rule as the data show it: active = growth inhibition above about 70%; inactive = the rest.
Hi! Could you answer with just one of these? 1.0 for active, 0.0 for inactive

Reference set, count: 10
COMPOUND	ANSWER_LABEL
Cc1ccc(-n2cnc3c(N(CCCl)CCCl)ncnc32)cc1	0.0
O=c1cccc2n1CC1CNCC2C1 (stereo unspecified)	0.0
O=[As](O)(O)c1ccc2nc3cc([As](=O)(O)O)ccc3nc2c1	0.0
C/C=C/C(C)C1(CC)C(=O)NC(=S)NC1=O (stereo unspecified)	0.0
N#C[S-].[Ce+3].c1cnc2c(c1)ccc1cccnc12.c1cnc2c(c1)ccc1cccnc12.c1cnc2c(c1)ccc1cccnc12	1.0
O=C1NC(=S)NC(=O)C1=Cc1cccc2cc3ccccc3cc12	1.0
C[CH2][Sn]([CH2]C)([CH2]C(=O)OC)[CH2]C(=O)OC	0.0
COc1ccc(CCN(C)Cc2cccc(OC)c2OC)cc1OC	0.0
C=CCN(CC=C)C1CCOC(OC)C1O (stereo unspecified)	0.0
CC1=C/C(=C2/N=C(N(C)C)SS2)C(C)=N1	0.0

Next compound, please.
Lookup: Any idea what this test logged for CCCC(C)C1(C)C(=O)NC(=O)N(C)C1=O (stereo unspecified) ?
Found: 0.0

----------
- PROTOCOL_NOTES: NCI Yeast Anticancer Drug Screen. Data for the cln2 rad14 strain (AID 165);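 also: 0% = growth equal to vehicle treated cultures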
- ASSAY_CONDITIONS: S. cerevisiae cln2 rad14 strain, at 50.0 µM, active compounds read high
About 79,000 compounds went through this panel and 15% of them were active in at least one assay; those are over-represented in the sample as a whole.
MEASURED_PARAMETER: growth inhibition (%)
Reply with just the number (in %).

In the examples that follow, each entry is paired with its recorded growth inhibition.
MOLECULE	growth inhibition, %
COC1/C=C/C=C(/C)Cc2cc(O)c(Cl)c(c2)N(C)C(=O)CC(OC(=O)C(C)C)C2(C)OC2C(C)C2CC1(O)NC(=O)O2 (stereo unspecified)	-9.15
O=[N+]([O-])c1ccc([N+](=O)[O-])c2nsnc12	99.3
O=C(O)CC(=O)O.[Ti].[c-]1[c-][c-][cH-][c-]1.[c-]1[c-][c-][cH-][c-]1	-51.6
Cc1cccc(N)c1N	0.4

Lookup: # input molecule: Cc1cc(C)n(SC(Cl)(Cl)Cl)n1 ; wanted: its growth inhibition
Found: -4.6

Lookup: # input molecule: CCC[CH2][Sn]1([CH2]CCC)[O]C(=O)c2cccc(OC)c2[O]1 ; wanted: its growth inhibition
Found: 98.4

Lookup: # input molecule: Oc1ccc(CCNCc2cc3c(cc2Br)OCO3)cc1 ; wanted: its growth inhibition
Found: 1.2

----------
- PROTOCOL_NOTES: NCI Yeast Anticancer Drug Screen. Data for the rad50 strain (AID 155);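 also: 0% = growth of vehicle-only cultures of the same strain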
- ASSAY_CONDITIONS: S. cerevisiae rad50 strain growth inhibition; at 50.0 µM; active compounds read high
This is part of a sample that, as a whole, favours compounds with a hit. Of some 79,000 tested, about 15% had one in any assay.
Criterion: growth inhibition meeting or surpassing 10%. Met: 1.0. Not met: 0.0.

COMPOUND	ANSWER_LABEL
CCC[CH2][Sn]1([CH2]CCC)[O]CC(COc2c(Cl)cc(Cl)cc2Cl)[O]1 (stereo not drawn)	1.0
COc1cc2c(cc1OC)[N+]1(C)CCC3OCCC4C[N+]5(C)CCC26C5CC4C3C61 (stereo not drawn)	0.0
Cc1ccc(NCc2ccccc2)cc1[As](=O)(O)O	1.0
CSP(=S)(SC)SC	1.0
CCOC(=O)C(=O)C1CCNC1=O (stereo not drawn)	0.0

Lookup: Could you tell me if the measured growth inhibition of Oc1ccc(Nc2c3ccc(Cl)cc3nc3ccc(-c4ccccc4)cc23)cc1CN(CCCl)CCCl reaches 10% or more?
Found: 1.0

Lookup: Could you tell me if the measured growth inhibition of [Cl][Sn]([Cl])([c]1ccccc1)[c]1ccccc1.c1ccncc1 reaches 10% or more?
Found: 1.0

Lookup: Could you tell me if the measured growth inhibition of CC([NH-])C[NH-].[Na+].[O]=[Co][O-] (stereo not drawn) reaches 10% or more?
Found: 0.0

----------
// growth inhibition lookup, one value per entry
- PROTOCOL_NOTES: NCI Yeast Anticancer Drug Screen. Data for the mlh1 rad18 strain (AID 175)
- ASSAY_CONDITIONS: S. cerevisiae mlh1 rad18 strain growth inhibition; at 50.0 µM; active compounds read high
Compounds without any hit were thinned out: in the full panel of roughly 79,000, 15% have a hit. Active and inactive are the calls of the source. No stated cut-off is given here; in the data, active means growth inhibition above about 70%; inactive means the rest.

Lookup: # input compound: N#CCc1ccc(Br)cc1 ; wanted: its growth inhibition
Found: 5.8% (inactive)

Lookup: # input compound: c1ccc(-c2ccc[n+](CCC[n+]3cccc(-c4ccccn4)c3)c2)nc1 ; wanted: its growth inhibition
Found: 6.25% (inactive)

Lookup: # input compound: N#Cc1ccncc1 ; wanted: its growth inhibition
Found: 16% (inactive)

Lookup: # input compound: Nc1ccc(Cl)c(C(F)(F)F)c1 ; wanted: its growth inhibition
Found: 2.6% (inactive)

Lookup: # input compound: NC(=O)NNC(=O)C(Cl)(Cl)Cl ; wanted: its growth inhibition
Found: -14.2% (inactive)

Lookup: # input compound: C/C=C1\CN2CC[C@H]1C[C@H]2[C@H](O)c1ccnc2ccc(NCCO)cc12 ; wanted: its growth inhibition
Found: 36.9% (inactive)

Lookup: # input compound: O=C(CC(=O)C(F)(F)C(F)(F)C(F)(F)F)c1ccco1.[Ni] ; wanted: its growth inhibition
Found: 34.6% (inactive)

----------
- PROTOCOL_NOTES: NCI Yeast Anticancer Drug Screen. Data for the bub3 strain (AID 167)
- ASSAY_CONDITIONS: S. cerevisiae bub3 mutant strain, at 5.0 µM (retest, dose inferred, filed as 0.5), active compounds read high
- Experimental: Growth inhibition of yeast strains with defined genetic alterations is measured as a screen for potential anti-cancer activity. Selected strains with alterations in DNA damage repair or cell cycle control were exposed to compounds and growth inhibition was measured relative to vehicle treated controls. The strain used in this assay is bub3
The panel holds about 79,000 compounds, 15% with a hit somewhere; the sample as a whole holds those more often. The source made the active and inactive calls. Rule as the data show it: active = growth inhibition above about 70%; inactive = the rest.
MEASURED_PARAMETER: growth inhibition

In the examples that follow, each entry is paired with its recorded growth inhibition.
MOLECULE	growth inhibition
CCCCCCCCCC(=O)[O][Hg][c]1ccccc1	99% (active)
CN(C)C(=S)Nc1nnc(NC23CC4CC(CC(C4)C2)C3)s1	3% (inactive)
CC(=O)[O-].CC(=O)[O-].O=C([CH-]C(=O)c1ccccc1)c1ccccc1.[Nd+3].[OH3+]	27% (inactive)
C[As](C)SCCC(N)C(=O)NC(CCS[As](C)C)C(=O)O (centres undefined)	2% (inactive)
[Cl-].[Cl-].[Cl-].[O-]c1cccc2cccnc12.[O-]c1cccc2cccnc12.[O]=[Mo]	64% (inactive)
CC(Cc1ccc2c(c1)OCO2)NN (centres undefined)	2% (inactive)
CC1(C)N=C(N)N=C(N)N1c1ccc(OCC(=O)Nc2cccc(S(=O)(=O)F)c2)c(Cl)c1	-6% (inactive)
CC[S+](C)c1ccc(-c2c3nc(c(-c4ccc([S+](C)CC)cc4)c4ccc([nH]4)c(-c4ccc([S+](C)CC)cc4)c4nc(c(-c5ccc([S+](C)CC)cc5)c5ccc2[nH]5)C=C4)C=C3)cc1 (centres undefined)	94% (active)

// below: growth inhibition requested for another molecule
Lookup: # input molecule: Oc1c(Cl)cc(Cl)c2ccccc12.[Cu+2] ; wanted: its growth inhibition
Found: -2% (inactive)
